Provenance of the data: ChEMBL document CHEMBL1126570

test: Aqueous solubility was determined; format: physicochemical
reported metric: solubility (µg/mL)

>>> number("N#CCN(CO)c1nc(N(CO)CC#N)nc(N(CO)CC#N)n1")
1000
>>> number("CN(CO)c1nc(N(C)CO)nc(N(C)CO)n1 [TRIMELAMOL]")
4500
>>> number("OCN(CC(F)(F)F)c1nc(N(CO)CC(F)(F)F)nc(N(CO)CC(F)(F)F)n1")
30
>>> number("C#CCN(CO)c1nc(N(CO)CC#C)nc(N(CO)CC#C)n1")
30

---

The following molecules are shown together with reported half-life values.
assay: Half-life was determined in water at 7.5 pH at room temperature; type: ADME; details: pH 7.5
reported metric: half-life

>>> result("N#CCN(CO)c1nc(N(CO)CC#N)nc(N(CO)CC#N)n1")
"75.2 h"
>>> result("OCN(CC(F)(F)F)c1nc(N(CO)CC(F)(F)F)nc(N(CO)CC(F)(F)F)n1")
"85 h"

---

assay: Half-life was determined in water at 2.0 pH at 37 degree C; type: ADME; conditions: pH 2
reported metric: half-life

>>> result("OCN(CC(F)(F)F)c1nc(N(CO)CC(F)(F)F)nc(N(CO)CC(F)(F)F)n1")
"1 h"
>>> result("N#CCN(CO)c1nc(N(CO)CC#N)nc(N(CO)CC#N)n1")
"5.83 h"
>>> result("C#CCN(CO)c1nc(N(CO)CC#C)nc(N(CO)CC#C)n1")
"0.667 h"

---

The following compounds are shown together with reported half-life values.
test: Half-life was determined in water at 5.0 pH at room temperature; assay type: ADME; conditions: pH 5
reported metric: half-life (h)

>>> number("N#CCN(CO)c1nc(N(CO)CC#N)nc(N(CO)CC#N)n1")
102
>>> number("CN(CO)c1nc(N(C)CO)nc(N(C)CO)n1")
13.7

---

test system: L1210; assay: In vitro cytotoxicity against L1210 murine lymphocytic leukemia cell lines; assay type: functional, cell-based; settings: Mus musculus
reported metric: IC50 (µM)

>>> number("N#CCN(CO)c1nc(N(CO)CC#N)nc(N(CO)CC#N)n1")
32.4
>>> number("OCN(CC(F)(F)F)c1nc(NCC(F)(F)F)nc(NCC(F)(F)F)n1")
83.2
>>> number("C#CCN(CO)c1nc(N(CO)CC#C)nc(N(CO)CC#C)n1")
47.8
>>> number("OCN(CC(F)(F)F)c1nc(N(CO)CC(F)(F)F)nc(N(CO)CC(F)(F)F)n1")
55.1
>>> number("CN(CO)c1nc(N(C)CO)nc(N(C)CO)n1 [TRIMELAMOL]")
33.4
>>> number("CNc1nc(NCC(F)(F)F)nc(N(CO)CC(F)(F)F)n1")
112

---

The following molecules are shown together with reported IC50 values.
assay: In vitro cytotoxicity against walker rat carcinoma 256 cell lines; type: functional
reported metric: IC50

>>> result("CNc1nc(NCC(F)(F)F)nc(N(CO)CC(F)(F)F)n1")
"27.5 µM"
>>> result("C#CCN(CO)c1nc(N(CO)CC#C)nc(N(CO)CC#C)n1")
"14.1 µM"
>>> result("OCN(CC(F)(F)F)c1nc(NCC(F)(F)F)nc(NCC(F)(F)F)n1")
"22.5 µM"
>>> result("OCN(CC(F)(F)F)c1nc(N(CO)CC(F)(F)F)nc(N(CO)CC(F)(F)F)n1")
"12.2 µM"
>>> result("N#CCN(CO)c1nc(N(CO)CC#N)nc(N(CO)CC#N)n1")
"7.5 µM"
>>> result("CN(CO)c1nc(N(C)CO)nc(N(C)CO)n1 [TRIMELAMOL]")
"9.4 µM"

---

The following compounds are shown together with reported half-life values.
experiment: Half-life was determined in water at 7.5 pH at 37 degree C; assay type: ADME; conditions: pH 7.5
reported metric: half-life (h)

>>> number("N#CCN(CO)c1nc(N(CO)CC#N)nc(N(CO)CC#N)n1")
4.58
>>> number("CN(CO)c1nc(N(C)CO)nc(N(C)CO)n1 [TRIMELAMOL]")
2
>>> number("C#CCN(CO)c1nc(N(CO)CC#C)nc(N(CO)CC#C)n1")
7.5
>>> number("OCN(CC(F)(F)F)c1nc(N(CO)CC(F)(F)F)nc(N(CO)CC(F)(F)F)n1")
11.5

---

assay: Half-life was determined in water at 5.0 pH at 37 degree C; format: ADME; settings: pH 5
The following compounds are shown together with reported half-life values.
reported metric: half-life

>>> result("CN(CO)c1nc(N(C)CO)nc(N(C)CO)n1")
"3.33 h"
>>> result("N#CCN(CO)c1nc(N(CO)CC#N)nc(N(CO)CC#N)n1")
"16 h"

---

assay: Half-life was determined in 5%dextrose at 4.0 pH at room temperature; format: ADME; conditions: 5% dextrose solution, pH 4
reported metric: half-life (h)

>>> number("OCN(CC(F)(F)F)c1nc(N(CO)CC(F)(F)F)nc(N(CO)CC(F)(F)F)n1")
50
>>> number("N#CCN(CO)c1nc(N(CO)CC#N)nc(N(CO)CC#N)n1")
180
>>> number("CN(CO)c1nc(N(C)CO)nc(N(C)CO)n1 [TRIMELAMOL]")
5.83
